Below: a set of entries, each annotated with reported Emax IL2 (% activation).
test system: primary human T-cells; assay: IL2 secretion measurements (24 h, CD3-stimulated T-cells, PBS counter screen); assay type: cell-based; conditions: CD3 condition; normalised to DMSO (neutral) and 20 μM reference compound A1 = 100%
Experimental Endpoint: Emax IL2 (% activation)

>>> observed_result("CC1(Nc2nnc(-c3ccc4c(c3)N(Cc3ccc(-c5noc(C(F)(F)F)n5)cc3)C(=O)[C@@H](N)CS4(=O)=O)o2)CC(F)(F)C1 [Example 72]")
238
>>> observed_result("N#CC1(c2nc(-c3cc4c(cc3F)S(=O)(=O)C[C@H](N)C(=O)N4Cc3ccc(-c4noc(C(F)(F)F)n4)cc3)no2)CC1 [Example 16]")
315
>>> observed_result("Cn1nc(C(F)(F)F)cc1-c1ccc(CN2C(=O)[C@@H](N)CS(=O)(=O)c3ccc(-c4nnc(C(C)(C)C)o4)cc32)cc1 [Example 92]")
157
>>> observed_result("CC(C)(CC#N)c1nnc(-c2ccc3c(c2)N(Cc2ccc(-c4ccc(OC(F)(F)F)cn4)cc2)C(=O)[C@@H](N)CS3(=O)=O)o1 [Example 175]")
52
>>> observed_result("CC(C)(C)c1nnc(-c2ccc3c(c2)N(Cc2ccc(-c4nc(C5CC5)no4)cc2)C(=O)[C@@H](N)CS3(=O)=O)o1 [Example 29]")
156
>>> observed_result("CC(C)(C)c1nnc(-c2ccc3c(c2)N(Cc2ccc(-c4cc(C(F)(F)F)on4)cc2)C(=O)[C@@H](N)CS3(=O)=O)o1 [Example 30]")
117
